system: NCI-H292 lung cancer cells; assay: FDA drug screening, complete media vs cholesterol-free media with simvastatin (TABLE 2); format: cell-based, human; settings: NCI-H292 cells, cholesterol-free media with simvastatin 0.04 μM; cell growth value in FDA drug screen
Where a name gives a salt, the structure may show the parent alone.
Reported Cholesterol-free media + simvastatin (0.04 μM) values are given for each entry in this list.

Reported Cholesterol-free media + simvastatin (0.04 μM) ( Cc1ccccc1C(=O)Nc1ccc(C(=O)N2CCCC(N(C)C)c3ccccc32)cc1 (stereo not drawn) [Mozavaptan (hydrochloride)] ) = 1.17

Reported Cholesterol-free media + simvastatin (0.04 μM) ( COc1c(N2CCNC(C)C2)c(F)cc2c(=O)c(C(=O)O)cn(C3CC3)c12 (stereo not drawn) [Gatifloxacin] ) = 0.9418

Reported Cholesterol-free media + simvastatin (0.04 μM) ( Nc1ccc(S(=O)(=O)Nc2ncccn2)cc1 [Sulfadiazine] ) = 1.499

Reported Cholesterol-free media + simvastatin (0.04 μM) ( CC(C)(C)c1ccc(C(O)CCCN2CCC(C(O)(c3ccccc3)c3ccccc3)CC2)cc1 (stereo not drawn) [Terfenadine] ) = 0.9762

Reported Cholesterol-free media + simvastatin (0.04 μM) ( N=C(N)c1ccc(OCCCCCOc2ccc(C(=N)N)cc2)cc1.O=S(=O)(O)CCO.O=S(=O)(O)CCO [Pentamidine (isethionate)] ) = 0.3285

Reported Cholesterol-free media + simvastatin (0.04 μM) ( O=C1Cc2cc(CCN3CCN(c4nsc5ccccc45)CC3)c(Cl)cc2N1 [Ziprasidone (hydrochloride monohydrate)] ) = 0.5734

Reported Cholesterol-free media + simvastatin (0.04 μM) ( CSCC[C@H](N)C(=O)O [L-Methionine] ) = 0.8406

Reported Cholesterol-free media + simvastatin (0.04 μM) ( O=C1[C@H](CC[C@H](O)c2ccc(F)cc2)[C@@H](c2ccc(O)cc2)N1c1ccc(F)cc1 [Ezetimibe] ) = 1.247

Reported Cholesterol-free media + simvastatin (0.04 μM) ( CC(=O)OCC(=O)[C@@]1(O)CC[C@H]2[C@@H]3CCC4=CC(=O)CC[C@]4(C)[C@H]3C(=O)C[C@@]21C [Cortisone acetate] ) = 1.003

Reported Cholesterol-free media + simvastatin (0.04 μM) ( CC(=O)O[C@]1(C(C)=O)CC[C@H]2[C@@H]3C=C(Cl)C4=CC(=O)[C@@H]5C[C@@H]5[C@]4(C)[C@H]3CC[C@@]21C [Cyproterone acetate] ) = 1.003

Reported Cholesterol-free media + simvastatin (0.04 μM) ( O=c1ccc2ccc(OCCCCN3CCN(c4cccc5sccc45)CC3)cc2[nH]1 [Brexpiprazole] ) = 0.8945

Reported Cholesterol-free media + simvastatin (0.04 μM) ( c1ccc2c(c1)Sc1ccccc1N2CC1CN2CCC1CC2 (stereo not drawn) [Mequitazine] ) = 0.8559

Reported Cholesterol-free media + simvastatin (0.04 μM) ( O=c1[nH]c(=O)n([C@H]2C[C@H](O)[C@@H](CO)O2)cc1/C=C/Br [Brivudine] ) = 1.157

Reported Cholesterol-free media + simvastatin (0.04 μM) ( O=c1c(-c2ccc(O)cc2)coc2c([C@@H]3O[C@H](CO)[C@@H](O)[C@H](O)[C@H]3O)c(O)ccc12 [Puerarin] ) = 0.9456

Reported Cholesterol-free media + simvastatin (0.04 μM) ( Fc1ccc(C(c2ccc(F)cc2)N2CCN(C/C=C/c3ccccc3)CC2)cc1 [Flunarizine (dihydrochloride)] ) = 0.8172

Reported Cholesterol-free media + simvastatin (0.04 μM) ( CCOC(=O)[C@H](CCc1ccccc1)N[C@@H](C)C(=O)N(CC(=O)O)C1Cc2ccccc2C1 [Delapril (hydrochloride)] ) = 0.7815

Reported Cholesterol-free media + simvastatin (0.04 μM) ( CCCCc1oc2ccccc2c1C(=O)c1cc(I)c(OCCN(CC)CC)c(I)c1 [Amiodarone (hydrochloride)] ) = 1.081

====

Reported Cholesterol-free values are given for each entry in this list.
system: NCI-H292 lung cancer cells; assay: FDA drug screening, complete media vs cholesterol-free media without statin (TABLE 1); assay type: cell-based, human; conditions: NCI-H292 cells, cholesterol-free media without statin
Where a name gives a salt, the structure may show the parent alone.
No unit in the answer, please; the number alone is enough.

These recorded examples may help you get a feel for the data.
1) c1ccc2c(c1)Sc1ccccc1N2CC1CN2CCC1CC2 (centres unmarked) : 1.704
2) O=C(O)C(c1ccccc1)(c1ccccc1)c1ccccc1.OCc1cc([C@@H](O)CNCCCCCCOCCOCc2c(Cl)cccc2Cl)ccc1O [Vilanterol (trifenatate)] : 1.453
3) O=C1[C@@H]2[C@H]3CC[C@H](C3)[C@@H]2C(=O)N1C[C@@H]1CCCC[C@H]1CN1CCN(c2nsc3ccccc23)CC1 [Lurasidone (Hydrochloride)] : 1.115
4) O=C1c2cccc3c2[C@H](CCC3)CN1[C@@H]1CN2CCC1CC2 [Palonosetron (Hydrochloride)] : 1.075

Reported Cholesterol-free ( CN1C(C(=O)Nc2ccccn2)=C(O)c2sccc2S1(=O)=O ) = 1.354

Reported Cholesterol-free ( CNCCc1ccccn1 [Betahistine (dihydrochloride)] ) = 1.528

Reported Cholesterol-free ( CN1CC(=O)N2[C@H](c3ccc4c(c3)OCO4)c3[nH]c4ccccc4c3C[C@@H]2C1=O ) = 1.298

Reported Cholesterol-free ( COc1ccc(O)cc1 ) = 0.8829

Reported Cholesterol-free ( CCCOc1ccc(C(=O)OCCN(CC)CC)cc1N [Proparacaine (Hydrochloride)] ) = 1.255

Reported Cholesterol-free ( COC1=C(OC)C(=O)C(CCCCCCCCCCO)=C(C)C1=O ) = 1.239

Reported Cholesterol-free ( CC(=O)c1c(C)c2cnc(Nc3ccc(N4CCNCC4)cn3)nc2n(C2CCCC2)c1=O [Palbociclib (hydrochloride)] ) = 1.289

Reported Cholesterol-free ( COc1ccc(/C=C/C(=O)Nc2ccccc2C(=O)O)cc1OC ) = 0.8255

====

Reported Difference values are given for each entry in this list.
test system: NCI-H292 lung cancer cells; experiment: FDA drug screening, complete media vs cholesterol-free media with simvastatin (TABLE 2); type: cell-based, human; settings: complete media vs cholesterol-free media + simvastatin (0.04 μM); >0 enhanced anti-cancer activity, about 0 neutral, <0 antagonist
No unit in the answer, please; the number alone is enough.

These recorded examples may help you get a feel for the data.
1. N[C@@H](Cc1c[nH]c2ccc(O)cc12)C(=O)O [L-5-Hydroxytryptophan] : −0.08
2. CCc1cc2c(cc1N1CCC(N3CCOCC3)CC1)C(C)(C)c1[nH]c3cc(C#N)ccc3c1C2=O [Alectinib] : −0.37
3. CCOc1ccc(Cc2cc([C@@H]3O[C@H](SC)[C@@H](O)[C@H](O)[C@H]3O)ccc2Cl)cc1 [Sotagliflozin] : −0.11

Turning now to a further molecule:
Reported Difference ( O=C(NC(Cc1cc(=O)[nH]c2ccccc12)C(=O)O)c1ccc(Cl)cc1 (stereo not drawn) [Rebamipide] ) = −0.15

====

Reported Complete values are given for each entry in this list.
tested on: NCI-H292 lung cancer cells; experiment: FDA drug screening, complete media vs cholesterol-free media without statin (TABLE 1); type: cell-based, human; settings: NCI-H292 cells, FDA drug library screen, complete media
Where a name gives a salt, the structure may show the parent alone.

These recorded examples may help you get a feel for the data.
1. CCOc1ccc(Cc2cc([C@@H]3O[C@H](SC)[C@@H](O)[C@H](O)[C@H]3O)ccc2Cl)cc1 : 0.9895
2. COc1cc2nccc(Oc3ccc(NC(=O)C4(C(=O)Nc5ccc(F)cc5)CC4)cc3)c2cc1OC [Cabozantinib] : 0.943

Reported Complete ( COc1cc2ncnc(Nc3ccc(F)c(Cl)c3)c2cc1NC(=O)/C=C/CN1CCCCC1 ) = 0.2371

Reported Complete ( Cn1nnc(-c2ccc(-c3ccc(N4C[C@H](CO)OC4=O)cc3F)cn2)n1 ) = 0.8073

Reported Complete ( CCN(C(=O)c1c(O)c2c(Cl)cccc2n(C)c1=O)c1ccccc1 ) = 0.9797

Reported Complete ( CN(C)CCN(Cc1ccccc1)c1ccccn1 [Tripelennamine (hydrochloride)] ) = 1.051

Reported Complete ( O=C(CCCN1CCC(O)(c2ccc(Br)cc2)CC1)c1ccc(F)cc1 ) = 1.05

====

test system: NCI-H292 lung cancer cells; assay: FDA drug screening, complete media vs cholesterol-free media with simvastatin (TABLE 2); format: cell-based, human; conditions: NCI-H292 cells, cholesterol-free media with simvastatin 0.04 μM; cell growth value in FDA drug screen
Counter-ions that a name gives are not always drawn.
Property measured: Cholesterol-free media + simvastatin (0.04 μM)
No unit in the answer, please; the number alone is enough.

1) O=C1Nc2ccc(Cl)cc2[C@@](C#CC2CC2)(C(F)(F)F)O1 : 1.215

Reported Cholesterol-free media + simvastatin (0.04 μM) ( CC(C(=O)O)c1ccc(C(=O)c2cccs2)cc1 (stereo not drawn) ) = 0.9436

Reported Cholesterol-free media + simvastatin (0.04 μM) ( CC1(C)O[C@@H]2C[C@H]3[C@@H]4C[C@H](F)C5=CC(=O)C=C[C@]5(C)[C@H]4[C@@H](O)C[C@]3(C)[C@]2(C(=O)CO)O1 [Flunisolide] ) = 0.5373

Reported Cholesterol-free media + simvastatin (0.04 μM) ( Clc1ccc(Cn2c(CN3CCCC3)nc3ccccc32)cc1 [Clemizole (hydrochloride)] ) = 0.9553
